Recorded IC50 values for a group of molecules are listed next.
test.system: PIP4K2B (Homo sapiens)
Construct: made in house; host or cells: E. coli
assay.explanation: Trans-FI P kinase assay PIP4K2B (PIP4KtypeIIB inhibition assay)
Type: biochemical
experimental.conditions: compounds listed under IC50 bin headings; 100 uM GTP; read-out: Trans-FI P kinase assays: PIP4K2B IC50

Answered examples (3):
molecule="CC1Oc2cc(N3CCCC3=O)ccc2-c2cnc(Nc3cnc4c(c3)N3C(=O)[C@](C)(O)C[C@H]3CO4)cc21 (stereo partly shown)" reported_property=IC50 result="10 to 100 nM"
molecule=CC1(C)Oc2cc(N3CCCC3=O)ccc2-c2cnc(Nc3cnc4c(c3)OCCO4)cc21 reported_property=IC50 result="10 to 100 nM"
molecule="CC1Oc2cc(N3CCCC3=O)ccc2-c2cnc(Nc3cnc4c(c3)N(C(=O)C3CC3)CCO4)cc21 (stereo not shown)" reported_property=IC50 result="1 to 10 nM"

Proceeding to the next molecule to report its IC50.
Look up IC50: `CN(C)C/C=C/C(=O)Nc1cccc(CCC(=O)Nc2cncc(Nc3cc4c(cn3)-c3ccc(N5CCCC5=O)cc3OC4(C)C)c2)c1`
10 to 100 nM

====

test.system: PIP4K 2A (Homo sapiens, UniProt P48426)
assay.explanation: ADP-glo kinase assay PIP4K 2A
Type: biochemical
Design: 4 nM PIP4K2A (full length protein, SignalChem); purchased SignalChem
experimental.conditions: compounds listed under IC50 bin headings
reported.property: IC50

Answered examples (2):
molecule="CC1Oc2cc(N3CCCC3=O)c(F)cc2-c2cnc(Nc3cnc4c(c3)N3C(=O)CC[C@H]3CO4)cc21 (stereo partly drawn)" reported_property=IC50 result="≤ 1 nM"
molecule="CC1Oc2cc(N3CCCC3=O)ccc2-c2cnc(Nc3cncc(S(C)(=O)=O)c3)cc21 (stereo not drawn)" reported_property=IC50 result="10 to 100 nM"

Look up IC50: CC1Oc2cc(N3CCCC3=O)ccc2-c2cnc(Nc3cncc(NC(=O)c4cccc5[nH]ccc45)c3)cc21 (stereo not drawn)
1 to 10 nM

Look up IC50: `O=C1CCCN1c1ccc2c(c1)OCc1cc(Nc3cnc4c(c3)N3C(=O)CC[C@H]3CO4)ncc1-2`
≤ 1 nM

Look up IC50: CC1Oc2cc(N3CCCC3=O)c(F)cc2-c2cnc(Nc3cnc4c(c3)N3C(=O)OC[C@H]3CO4)cc21 (stereo partly drawn)
≤ 1 nM

Look up IC50: COCCC(=O)N1CCN(c2cncc(Nc3cc4c(cn3)-c3ccc(N5CCCC5=O)cc3OC4C)c2)CC1 (stereo not drawn)
1 to 10 nM

Look up IC50: `COCCC(=O)N1CCN(c2cncc(Nc3cc4c(cn3)-c3ccc(N5CCCC5=O)cc3OC4)c2)CC1`
10 to 100 nM

Look up IC50: `O=C1CCCN1c1ccc2c(c1)OC1(COC1)c1cc(Nc3cnc4c(c3)N3C(=O)CC[C@H]3CO4)ncc1-2`
≤ 1 nM

====

test.system: UniProtKB P48426
Sequence (P48426 1-406): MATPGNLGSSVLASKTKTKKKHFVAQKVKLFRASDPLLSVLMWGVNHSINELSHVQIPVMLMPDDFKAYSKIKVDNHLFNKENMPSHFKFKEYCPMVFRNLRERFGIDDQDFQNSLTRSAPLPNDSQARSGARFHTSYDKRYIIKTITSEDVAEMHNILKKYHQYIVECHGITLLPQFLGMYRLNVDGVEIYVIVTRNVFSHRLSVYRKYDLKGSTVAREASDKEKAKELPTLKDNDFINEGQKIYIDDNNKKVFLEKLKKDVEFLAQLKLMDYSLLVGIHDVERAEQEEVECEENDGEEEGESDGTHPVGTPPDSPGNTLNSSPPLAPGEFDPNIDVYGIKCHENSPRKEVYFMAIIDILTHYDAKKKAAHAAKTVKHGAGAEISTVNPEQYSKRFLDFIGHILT
assay.explanation: ADP-glo kinase assay PIP4K 2A
Assay type: biochemical
Parameters: 4 nM PIP4K2A (full length protein, SignalChem); purchased SignalChem
experimental.conditions: compounds listed under IC50 bin headings
pIC50: −log10 of the molar value.
Recorded pIC50 values for a group of compounds are listed next.

Answered examples (3):
compound="O=C1NCCN1c1cncc(Nc2cc3c(cn2)-c2cc(F)c(N4CCCC4=O)cc2OC3)c1 [Example 161]" reported_property=pIC50 result="8.00 to 9.00"
compound="CC(CC(=O)Nc1cncc(Nc2cc3c(cn2)-c2ccc(N4CCCC4=O)cc2OC3C)c1)c1ccccc1 (stereo not shown) [Example 132]" reported_property=pIC50 result="8.00 to 9.00"
compound="COC(=O)Nc1cncc(Nc2cc3c(cn2)-c2ccc(N4CCCC4=O)cc2OC3C)c1 (stereo not shown) [Example 98]" reported_property=pIC50 result="8.00 to 9.00"

Look up pIC50: CC1(C)Oc2cc(N3CCCC3=O)ccc2-c2cnc(Nc3cnc4c(c3)N3C(=O)CC[C@H]3CO4)nc21 [Example 189]
≥ 9.00

Look up pIC50: CC1Oc2cc(N3CCCC3=O)ccc2-c2cnc(Nc3cnc4c(c3)N(S(C)(=O)=O)CCO4)cc21 (stereo not shown) [Example 49]
8.00 to 9.00

====

test.system: PIP4K 2A (Homo sapiens, UniProt P48426)
Sequence (P48426 1-406): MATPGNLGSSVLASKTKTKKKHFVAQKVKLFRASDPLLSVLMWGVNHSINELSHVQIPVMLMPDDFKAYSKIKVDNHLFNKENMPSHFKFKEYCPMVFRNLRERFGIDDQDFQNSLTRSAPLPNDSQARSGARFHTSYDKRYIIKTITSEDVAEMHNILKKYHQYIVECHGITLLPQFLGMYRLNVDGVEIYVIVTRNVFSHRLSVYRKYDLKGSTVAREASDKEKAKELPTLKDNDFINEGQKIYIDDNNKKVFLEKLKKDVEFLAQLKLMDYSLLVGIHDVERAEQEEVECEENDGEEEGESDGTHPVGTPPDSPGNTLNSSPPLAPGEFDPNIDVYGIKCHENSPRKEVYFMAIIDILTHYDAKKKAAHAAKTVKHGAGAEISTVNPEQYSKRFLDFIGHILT
assay.explanation: ADP-glo kinase assay PIP4K 2A
Assay type: biochemical
Set-up: 4 nM PIP4K2A (full length protein, SignalChem); purchased SignalChem
experimental.conditions: compounds listed under IC50 bin headings
reported.property: IC50

Answered examples (5):
compound=O=C1CCCN1c1ccc2c(c1)OCc1c(-c3ccncc3)cncc1-2 reported_property=IC50 result="> 1000 nM"
compound="CC1Oc2cc(N3CCCC3=O)ccc2-c2cnc(Nc3cncc(N4CCN(C)S4(=O)=O)c3)cc21 (stereo not shown)" reported_property=IC50 result="1 to 10 nM"
compound="CC1Oc2cc(N3CCCC3=O)ccc2-c2cnc(Nc3cncc(NC(=O)CCc4cccc(NC(=O)CCCN(C)C)c4)c3)cc21 (stereo not shown)" reported_property=IC50 result="1 to 10 nM"
compound="CC1Oc2cc(N3CCCC3=O)ccc2-c2cnc(Nc3cnc4c(c3)N3C(=O)C(O)C[C@H]3CO4)cc21 (stereo partly shown)" reported_property=IC50 result="≤ 1 nM"
compound="CC1Oc2cc(N3CCCC3=O)ccc2-c2cnc(Nc3cncc(N4CCCC4=O)c3)cc21 (stereo not shown)" reported_property=IC50 result="1 to 10 nM"

Look up IC50: CC1C[C@H]2COc3ncc(Nc4cc5c(cn4)-c4ccc(N6CCCC6=O)cc4OC5C)cc3N2C1=O (stereo partly shown)
≤ 1 nM

Look up IC50: CC1Oc2cc(N3CCCC3=O)ccc2-c2cnc(Nc3cnc4c(c3)N3C(=O)CC[C@@H]3CO4)cc21 (stereo partly shown)
≤ 1 nM

Look up IC50: CC1Oc2cc(N3CCCC3=O)ccc2-c2cnc(Nc3cncc(NC(=O)CCc4cccc(NC(=O)/C=C/CN(C)C)c4)c3)cc21 (stereo not shown)
1 to 10 nM

====

Recorded pIC50 values for a group of compounds are listed next.
Sequence of the target: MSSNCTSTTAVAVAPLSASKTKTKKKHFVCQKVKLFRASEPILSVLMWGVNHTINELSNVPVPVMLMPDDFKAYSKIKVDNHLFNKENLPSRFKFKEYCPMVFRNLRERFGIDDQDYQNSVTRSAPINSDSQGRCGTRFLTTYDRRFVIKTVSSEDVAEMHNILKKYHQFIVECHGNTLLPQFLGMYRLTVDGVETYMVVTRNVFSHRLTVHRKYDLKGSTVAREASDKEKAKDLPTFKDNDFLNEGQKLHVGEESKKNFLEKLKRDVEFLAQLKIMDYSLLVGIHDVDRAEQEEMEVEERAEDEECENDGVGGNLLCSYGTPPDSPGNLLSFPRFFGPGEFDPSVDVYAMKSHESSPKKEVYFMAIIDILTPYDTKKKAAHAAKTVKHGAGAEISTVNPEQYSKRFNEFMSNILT
pIC50: −log10 of the molar value.

compound="CC1Oc2cc(N3CCCC3=O)ccc2-c2cnc(Nc3cncc(F)c3)cc21 (stereo not drawn)" result="< 6.00"
compound="CC1Oc2cc(N3CCCC3=O)ccc2-c2cnc(Nc3cnc4c(c3)N(C(=O)C(C)(C)C)CCO4)cc21 (stereo not drawn)" result="8.00 to 9.00"

Look up pIC50: CC1Oc2cc(N3CCCC3=O)ccc2-c2cnc(Nc3cncc(S(C)(=O)=O)c3)cc21 (stereo not drawn)
< 6.00

Look up pIC50: CC1Oc2cc(N3CCCC3=O)ccc2-c2cnc(Nc3cccnc3)cc21 (stereo not drawn)
6.00 to 7.00

Look up pIC50: CNC(=O)Nc1cncc(Nc2cc3c(cn2)-c2ccc(N4CCCC4=O)cc2OC3C)c1 (stereo not drawn)
7.00 to 8.00

Look up pIC50: COc1ncc(Nc2cc3c(cn2)-c2ccc(N4CCCC4=O)cc2OC3C)cc1NC(C)=O (stereo not drawn)
7.00 to 8.00

Look up pIC50: CC1Oc2cc(N3CCCC3=O)c(F)cc2-c2cnc(Nc3cncc(N4CCNC4=O)c3)cc21 (stereo not drawn)
7.00 to 8.00

Data provenance is patent US11584763B2.
